targetUnderTest: Androgen Receptor (AR) (Homo sapiens, UniProt P10275, T878A)
Construct: cell based immuno-fluorescence assay using the LNCaP prostate epithelial cell line; endogenous in cells; host or cells: LNCaP clone FGC (ATCC CRL-1740)
Sequence (P10275 1-920 T878A): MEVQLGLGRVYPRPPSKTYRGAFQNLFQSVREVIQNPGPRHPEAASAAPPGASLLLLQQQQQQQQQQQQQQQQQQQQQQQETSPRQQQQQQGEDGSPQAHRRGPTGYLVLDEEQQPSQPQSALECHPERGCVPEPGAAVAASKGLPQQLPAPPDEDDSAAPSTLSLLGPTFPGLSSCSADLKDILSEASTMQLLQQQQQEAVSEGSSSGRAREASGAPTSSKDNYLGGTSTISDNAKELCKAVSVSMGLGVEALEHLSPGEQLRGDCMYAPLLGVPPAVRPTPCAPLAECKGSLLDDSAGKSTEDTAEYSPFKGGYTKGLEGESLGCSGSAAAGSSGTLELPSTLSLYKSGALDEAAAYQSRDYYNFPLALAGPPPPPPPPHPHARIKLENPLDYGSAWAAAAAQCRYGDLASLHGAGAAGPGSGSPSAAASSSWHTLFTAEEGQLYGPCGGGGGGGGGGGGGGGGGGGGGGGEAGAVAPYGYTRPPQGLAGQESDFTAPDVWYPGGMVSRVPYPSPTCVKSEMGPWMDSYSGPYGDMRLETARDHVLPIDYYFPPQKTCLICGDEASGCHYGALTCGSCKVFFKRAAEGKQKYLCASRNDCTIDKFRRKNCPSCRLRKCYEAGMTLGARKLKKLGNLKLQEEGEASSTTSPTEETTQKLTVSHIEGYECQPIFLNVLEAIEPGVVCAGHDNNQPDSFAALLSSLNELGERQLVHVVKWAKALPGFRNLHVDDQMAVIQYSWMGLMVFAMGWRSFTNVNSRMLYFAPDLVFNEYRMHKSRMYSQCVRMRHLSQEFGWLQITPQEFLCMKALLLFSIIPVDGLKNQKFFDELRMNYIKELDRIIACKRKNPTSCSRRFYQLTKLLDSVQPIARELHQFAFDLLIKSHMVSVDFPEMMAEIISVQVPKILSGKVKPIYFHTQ
protocolDescription: LNCaP Androgen Receptor Down-regulation Cell Assay (immunofluorescence end point)
Format: cell-based
measurementConditions: LNCaP prostate carcinoma cells, compound incubation 20-22 hours, 50% reduction of the AR signal; read-out: Androgen Receptor Down-regulation Assay (a) IC50/μM
Quick reference for DC50 among some compounds

{"compound": "O=C(CCCN1CCCC1)Nc1cccc(C2CCN(c3ccc4nnc(C(F)(F)F)n4n3)CC2)c1", "units": "µM", "inequalityOperator": "=", "DC50": 0.63}
{"compound": "FC(F)(F)c1nnc2ccc(N3CCC(Oc4cccnc4Br)CC3)nn12", "units": "µM", "inequalityOperator": "=", "DC50": 2.9}
{"compound": "Cn1cccc1CN1CCN(c2ccc3nnc(C(F)(F)F)n3n2)CC1", "units": "µM", "inequalityOperator": "=", "DC50": 5.2}
{"compound": "FC(F)(F)c1ccc(CN2CC3CN(c4ccc5nnc(C(F)(F)F)n5n4)CC3C2)cn1 (stereo not shown)", "units": "µM", "inequalityOperator": "=", "DC50": 1.7}
{"compound": "CS(=O)(=O)c1ccc(F)cc1CN1CCN(c2ccc3nnc(C(F)F)n3n2)CC1", "units": "µM", "inequalityOperator": ">", "DC50": 18}
{"compound": "COc1ccc(S(=O)(=O)N2CCN(c3ccc4nnc(C(F)(F)F)n4n3)CC2)c(OC)c1", "units": "µM", "inequalityOperator": "=", "DC50": 2.7}
{"compound": "COc1ccc(C2(O)CCN(c3ccc4nnc(C(F)(F)F)n4n3)CC2)cc1", "units": "µM", "inequalityOperator": "=", "DC50": 5}
{"compound": "CN(CCO)C(=O)c1ccc(OC2CCN(c3ccc4nnc(C(F)(F)F)n4n3)CC2)cc1", "units": "µM", "inequalityOperator": "=", "DC50": 9.1}
{"compound": "FC(F)(F)c1nnc2ccc(N3CCC(c4noc(-c5ccccc5)n4)CC3)nn12", "units": "µM", "inequalityOperator": "=", "DC50": 1.8}
{"compound": "CN(C)CCCOc1cccc(OC2CCN(c3ccc4nnc(C(F)(F)F)n4n3)CC2)c1", "units": "µM", "inequalityOperator": "=", "DC50": 1.5}
{"compound": "CN(C)C(=O)c1ccc(OC2CCN(c3ccc4nnc(C(F)(F)F)n4n3)CC2)cc1", "units": "µM", "inequalityOperator": "=", "DC50": 4.6}
{"compound": "O=C(CN1CCN(c2ccc3nnc(C(F)(F)F)n3n2)CC1)N1CCCCC1", "units": "µM", "inequalityOperator": ">", "DC50": 26}
{"compound": "Fc1cc(F)cc(CN2CCN(c3ccc4nnc(C(F)(F)F)n4n3)CC2)c1", "units": "µM", "inequalityOperator": "=", "DC50": 2.7}
{"compound": "COCCCC(=O)Nc1ccc(C2CCN(c3ccc4nnc(C(F)(F)F)n4n3)CC2)cc1", "units": "µM", "inequalityOperator": "=", "DC50": 0.6}
{"compound": "CC(=O)Nc1ccc(CN2CCN(c3ccc4nnc(C(F)(F)F)n4n3)CC2)cc1", "units": "µM", "inequalityOperator": "=", "DC50": 7.2}
{"compound": "FC(F)c1cccc(CN2CCN(c3ccc4nnc(C(F)F)n4n3)CC2)c1", "units": "µM", "inequalityOperator": "=", "DC50": 1.9}
{"compound": "FC(F)(F)c1cccc(CN2CC3CN(c4ccc5nnc(C(F)(F)F)n5n4)CC3C2)c1 (stereo not shown)", "units": "µM", "inequalityOperator": "=", "DC50": 1.5}
{"compound": "CN1CCC(Oc2ccc(OC3CCN(c4ccc5nnc(C(F)(F)F)n5n4)CC3)cc2)CC1", "units": "µM", "inequalityOperator": "=", "DC50": 0.75}
{"compound": "FC(F)(F)c1nnc2ccc(N3CCC(Oc4ccc(OCCCN5CCNCC5)cc4)CC3)nn12", "units": "µM", "inequalityOperator": "=", "DC50": 0.9}
{"compound": "FC(F)(F)c1nnc2ccc(N3CCN(Cc4nccs4)CC3)nn12", "units": "µM", "inequalityOperator": "=", "DC50": 8.4}
{"compound": "CN(C)CCOc1ccc(CN2CCN(c3ccc4nnc(C(F)(F)F)n4n3)CC2)cc1", "units": "µM", "inequalityOperator": "=", "DC50": 7.1}
{"compound": "FC(F)c1nnc2ccc(N3CCN(Cc4cccc(C(F)(F)F)c4)CC3)nn12", "units": "µM", "inequalityOperator": "=", "DC50": 1.8}
{"compound": "Fc1ccc(C2=CCN(c3ccc4nnc(C(F)(F)F)n4n3)CC2)cc1", "units": "µM", "inequalityOperator": "=", "DC50": 7.8}
{"compound": "Fc1cccc(C2CCN(c3ccc4nnc(C(F)(F)F)n4n3)CC2)c1", "units": "µM", "inequalityOperator": "=", "DC50": 5.2}
{"compound": "FC(F)(F)c1nnc2ccc(N3CCC(Oc4ncc(Cl)cn4)CC3)nn12", "units": "µM", "inequalityOperator": ">", "DC50": 9.9}
{"compound": "FC(F)(F)c1nnc2ccc(N3CCN(Cc4cncc(Br)c4)CC3)nn12", "units": "µM", "inequalityOperator": "=", "DC50": 8}
{"compound": "Cn1nccc1CCOc1ccc(C2(O)CCN(c3ccc4nnc(C(F)(F)F)n4n3)CC2)cc1", "units": "µM", "inequalityOperator": "=", "DC50": 0.8}
{"compound": "CS(=O)(=O)c1ccc(C2CCN(c3ccc4nnc(C(F)(F)F)n4n3)CC2)cc1", "units": "µM", "inequalityOperator": "=", "DC50": 5.4}
{"compound": "FC(F)(F)c1nnc2ccc(N3CC4CN(Cc5ccc(Cl)nc5)CC4C3)nn12 (stereo not shown)", "units": "µM", "inequalityOperator": "=", "DC50": 0.96}
{"compound": "N#Cc1cccc(CN2CCN(c3ccc4nnc(C(F)(F)Cl)n4n3)CC2)c1", "units": "µM", "inequalityOperator": "=", "DC50": 1.7}
{"compound": "FC(F)(F)c1nnc2ccc(N3CCN(Cc4cccc(Br)n4)CC3)nn12", "units": "µM", "inequalityOperator": "=", "DC50": 4.1}
{"compound": "FC(F)(F)c1nnc2ccc(N3CCN(Cc4cccc5cnccc45)CC3)nn12", "units": "µM", "inequalityOperator": "=", "DC50": 0.76}
{"compound": "COc1ccccc1OCC1CCN(c2ccc3nnc(C(F)(F)F)n3n2)CC1", "units": "µM", "inequalityOperator": "=", "DC50": 7.7}
{"compound": "CN1CCN(CCCOc2ccc(OC3CCN(c4ccc5nnc(C(F)(F)F)n5n4)CC3)cc2)CC1", "units": "µM", "inequalityOperator": "=", "DC50": 0.53}
